- EXPERIMENTAL PROTOCOL: yeast display, Sf9 membrane polyspecificity reagent, FACS + sequencing; frameworks hold sequencing errors
TEST READOUT: polyreactivity (PSR sort gate)

Look over these answered cases.
{"columns": ["ITEM SEQUENCE", "RESULT"],
 "data": [
  ["QVQLVESGGGLLQAGGSLRLSCAASGRTFETNAMGWNRQAPGKQRELVASINWSGGSTYYADSVKGRFTISRDNAKNSVYLQMNSLKPEDTAVYYCAADHSYWDWWSYYYWGQGTQVTVSW", "low polyreactivity"],
  ["QVQHVESGGGLVQAGGSLRLSCAASGSIFAYYAMGWYRQAPGKERELVAAISYRGGSTYYADSVKGRFTISRDNAKNTVYLQMNSLKPEDTAVYYCNAGGRRRIFAHSSTGDYWGQGTQVTVSS", "high polyreactivity"],
  ["QVQLVESGGGLVQAGGSLRLSCAASGSIFYQYAMGWYRQAPGKERELVAAISRSGGSTYYADSVKGRFTISRDNPKNTVYLQMNSLKPEDTAGYYCAARAVRAAYDYWGQGSQVTVSS", "low polyreactivity"],
  ["QVQLVESGGGLVQAGGSLRLSCAASGSIFAWYGMGWYRQAPGKERELVAAITSTGSTYYADSVKGRFTISRDNAKNTVYLQMNSLKPEDTAVYYCNDYSVYLWRPGDYWGQGTQVTVSS", "low polyreactivity"],
  ["QVQLVESGGGLVQAGGSLRLSCAASGFTFYYYAMGWYRQATGKVRELVAAISARGGSTYYADSVKGRFTISRDNAKNTVYLQMNSLKPEDTAVYYCNAVTGHTSYEYDYWGQGTQVTVSS", "high polyreactivity"],
  ["QVQLVESGGGLVQAGGSLRLSCAASGFIFYRYAMGWYRQAPGKEREFVASISGSGGRTYFADSVKGRFTISRDNAKNTVYLQMNSLKPEDTAVYYCNVVSKSRISQYVGYSYDYWGQGTQVTVSS", "high polyreactivity"],
  ["QVQLVESGGGLVQAGGSLRLSCAASGSIFYGYAMGWYRQAPGKERELVAAISLSGGRTYYADSVKGRFTLSRDNAKNPVYLQRNSLKPEDTAVYYCAAQTRSSDGPSWYYYWGQGTQVTVSS", "high polyreactivity"],
  ["QVQLVESGGGLVQAGGSLRLSCAASGRIFRVYAMGWYRQAPGKERELVAAISGRGGSTTYADSVKGRFTISRDNAKNTVYLLMNSLKPEDTAVYYCAAGYRVDYWGQGTQVTVSS", "low polyreactivity"]
]}

polyreactivity (PSR sort gate) recorded for this sequence, QGQLVESGGGLVQAGGSLRLTCPPSGFTFRTNAMGWYRQAPGKERELVAAISYSGGSTYYADSVKGRFTISRDNAKNTVYFQMNSLKPEDTAVSYCAARAAGSQHDYWGQGSQVTVSS , is high polyreactivity

Entry QVQLVESGVGLVQAGGSLRLSCAASGSIFGFYAMGWSRQAPGKERELVAAISDSGDSTYYADSVKGRFTISRDNAKNTVYLQMNSLKPEDTAVYNCATDGRSNYYWGDYWGQGTQVTVSS ; polyreactivity (PSR sort gate) = low polyreactivity

The value of polyreactivity (PSR sort gate) measured for the sequence QVQLVESGGGLVQPGGSLRLSCAASGLTISYYAMGWYRQAPGKEREFVAAITSRGGDTYYADSVKGRFTISRDNAKNTVYLQMNSLKPEDTAVYYCAVRPRYYGTYRYYYWGQGTQVTVSS turned out to be high polyreactivity

Data provenance: the nanobody polyreactivity screen of Harvey et al. (2022)
